Target sequence: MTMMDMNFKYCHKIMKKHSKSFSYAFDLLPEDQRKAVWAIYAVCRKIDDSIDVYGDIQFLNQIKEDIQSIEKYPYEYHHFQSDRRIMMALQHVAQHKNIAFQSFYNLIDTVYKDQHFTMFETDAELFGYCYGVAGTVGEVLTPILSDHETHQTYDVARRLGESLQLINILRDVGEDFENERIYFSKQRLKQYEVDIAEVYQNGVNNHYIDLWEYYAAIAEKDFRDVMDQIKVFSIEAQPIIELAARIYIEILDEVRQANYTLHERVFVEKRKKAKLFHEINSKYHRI
pIC50: −log10 of the molar value.
// values below are reported pIC50

>  <Smiles Input>
CCCCCCOc1cccc(CCCNC(=O)CC(=O)C(=O)O)c1

>  <pIC50>
< 3.52

$$$$

Now look at this one.
Q) Look up pIC50 for this compound: `CCCCCCCCOc1ccc(C(=O)CC(=O)C(=O)O)cc1`
A) < 3.52
